Attribution: PubChem BioAssay AID504332

Molecular target: Histone-lysine N-methyltransferase EHMT2 (Homo sapiens) (UniProt Q96KQ7)
Sequence (Q96KQ7 913-1193 limits assumed): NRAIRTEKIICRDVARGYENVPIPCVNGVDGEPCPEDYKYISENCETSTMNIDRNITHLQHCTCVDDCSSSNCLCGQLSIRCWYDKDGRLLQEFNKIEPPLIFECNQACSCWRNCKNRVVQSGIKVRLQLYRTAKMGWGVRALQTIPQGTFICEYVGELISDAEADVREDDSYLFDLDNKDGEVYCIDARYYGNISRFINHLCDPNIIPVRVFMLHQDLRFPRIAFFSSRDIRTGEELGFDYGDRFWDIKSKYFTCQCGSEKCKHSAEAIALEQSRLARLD
Assay: qHTS Assay for Inhibitors of Histone Lysine Methyltransferase G9a; further: nearly all actives have a fitted effect of over 75% in size; on activity, negative = inhibition: on the % scale 0 is the no-effect control and ±100 the full control effect
Conditions: G9a H3K9 monomethylation, AlphaScreen, 2 h; series mostly up to 59 µM
Among all 350,000 compounds or so, about 31,000 (8.9%) were called active. About 15% were inconclusive and are not listed. Shown is part of a subset that was picked to be rich in actives.
endpoint.label: activity, negative = inhibition

Exam item: Entry under review: CCOC(=O)N1CCN(C(=O)COc2ccc3oc4c(c3c2)CCCC4)CC1 . Reported activity, negative = inhibition?
Marked response: 14.4% [at 2.33 µM] (inactive)

---

Each entry below carries its recorded activity, negative = inhibition.
Target: Histone-lysine N-methyltransferase EHMT2 (Homo sapiens)
Test: qHTS Assay for Inhibitors of Histone Lysine Methyltransferase G9a; further: nearly all actives have a fitted effect of over 75% in size; on activity, negative = inhibition: on the % scale 0 is the no-effect control and ±100 the full control effect
Settings: G9a H3K9 monomethylation, AlphaScreen, 2 h; series mostly up to 59 µM
Out of some 350,000 compounds screened, about 31,000 (8.9%) were called active. Inconclusive results (about 15%) are left out. The sample as a whole holds a higher share of actives than the screen did.

Cc1ccc(-c2cnc(C3CC3)o2)cc1S(=O)(=O)Nc1cccc(C)c1C; -9.84% [at 12.7 µM] (inactive)
CC(OC(=O)c1cc2ccccc2o1)C(=O)Nc1ccc(N2CCOCC2)cc1 (stereo not given); -43.1% [at 12.7 µM] (inactive)
CCc1ccc2nc3sc(C(=O)Nc4nnc(CC)s4)c(N)c3cc2c1; -8.03% [at 12.7 µM] (inactive)

Here is another compound to look at.
Exam item: Entry under review: Cc1ccc(-c2nn(-c3ccccc3)cc2C(=O)NC2CCC(O)CC2)cc1 (stereo not given) . Reported activity, negative = inhibition?
Marked response: 9.53% [at 2.33 µM] (inactive)

---

Target: Histone-lysine N-methyltransferase EHMT2 (Homo sapiens) (UniProt Q96KQ7)
Assay: qHTS Assay for Inhibitors of Histone Lysine Methyltransferase G9a; further: nearly all actives have a fitted effect of over 75% in size
Details: G9a H3K9 monomethylation, AlphaScreen, 2 h; series mostly up to 59 µM
In all, about 350,000 compounds went through this assay and about 31,000 (8.9%) were called active. Not shown: some 15% with an inconclusive outcome. Calls come from the whole dose curve; as a rule, active = well fitted inhibition curve with a large enough effect; inconclusive = small, poorly fitted or top-dose-only effect; inactive = no such curve, though single readings can be large or run the other way. The sample as a whole holds a higher share of actives than the screen did.
Permitted responses: 1 (active), 0 (inactive)

Completed entries (count: 4):
Cc1ccccc1NC(=O)Cn1c(=O)n(CCCCC(=O)NCc2ccccc2Cl)c(=O)c2ccccc21; 0
CSc1nc(Nc2ccc(F)cc2)cc(-c2ccccc2)n1; 0
Cc1nn(C(C)C(=O)Nc2ccc(C(C)C)cc2)c(=O)c2c1sc1ccccc12 (stereo not given); 0
COc1ccc(CC(=O)N2CC(=O)Nc3ccc(Br)cc3C2c2ccc(F)cc2)cc1OC (stereo not given); 0

Exam item: Record request — test call for Cc1ccc(-c2cnc(NCc3ccc(C(C)C)cc3)n2C)cc1
Marked response: 1

Exam item: Record request — test call for Cc1cc(C)c(C#N)c(SCc2[nH]nc3c2C(c2ccccc2)C(C#N)=C(N)O3)n1 (stereo not given)
Marked response: 0

Exam item: Record request — test call for Cn1ccc2cc(S(=O)(=O)N3CCCC(C(=O)NCc4ccccc4F)C3)ccc21 (stereo not given)
Marked response: 0

Exam item: Record request — test call for O=C1CSC(=S)N1/N=C/c1ccc(O)c([N+](=O)[O-])c1
Marked response: 1

Exam item: Record request — test call for CCC(=O)Nc1ccc(S(=O)(=O)Nc2c(NC)c3ccccc3oc2=O)cc1
Marked response: 0

Exam item: Record request — test call for Cc1cc(C(=O)COc2ccc(Br)cc2F)c(C)n1C1CC1
Marked response: 0

---

Biological target: Histone-lysine N-methyltransferase EHMT2 (Homo sapiens) (UniProt Q96KQ7)
Experiment: qHTS Assay for Inhibitors of Histone Lysine Methyltransferase G9a; further: nearly all actives have a fitted effect of over 75% in size
Settings: G9a H3K9 monomethylation, AlphaScreen, 2 h; series mostly up to 59 µM
Screen size: about 350,000 compounds; about 31,000 (8.9%) were called active. About 15% were inconclusive and are not listed. The call rests on the fitted dose curve; in most records, active means well fitted inhibition curve with a large enough effect; inconclusive means small, poorly fitted or top-dose-only effect; inactive means no such curve, though single readings can be large or run the other way. The sample as a whole holds a higher share of actives than the screen did.
Permitted responses: yes (1) (active), no (0) (inactive)

CCOc1ccccc1/C=N/NC(=O)CNC(=O)COc1ccccc1; no (0)

Exam item: Record request — test call for O=C(CNC(=O)c1ccccc1Br)NNC(=O)c1cccs1
Marked response: no (0)

Exam item: Record request — test call for CCN(CC)c1ccc(NC(=O)CN2CCN(c3ccccn3)CC2)cc1
Marked response: yes (1)

Exam item: Record request — test call for CC1CCCN(c2csc3ccc(F)cc3c2=O)C1 (stereo not given)
Marked response: no (0)

---

Target: Histone-lysine N-methyltransferase EHMT2 (Homo sapiens)
Experiment: qHTS Assay for Inhibitors of Histone Lysine Methyltransferase G9a; further: nearly all actives have a fitted effect of over 75% in size; further: potency means the concentration at half of the fitted maximal effect
Settings: G9a H3K9 monomethylation, AlphaScreen, 2 h; series mostly up to 59 µM
Hit rate of the full screen: of about 350,000 compounds, about 31,000 (8.9%) were called active. Another 15% or so got no clear call; they are omitted. Only a selection was taken, and actives are over-represented in it overall.
endpoint.label: Potency

Cc1ccc(NC(=O)CN(C)C(=O)c2ccc(Br)o2)cc1; inactive
Cc1cc(C)cc(NC(=S)NCCc2c[nH]c3ccccc23)c1; 39.8 µM (active)
CN(C)S(=O)(=O)c1ccc(N2CCCC2=O)c([N+](=O)[O-])c1; inactive
CCOC(=O)C(Cc1ccc(N)cc1)N1C(=O)c2ccccc2C1=O (configuration not stated); 50.1 µM (active)
Cc1ccc([N+](=O)[O-])cc1S(=O)(=O)N1CCCN(C)CC1; 56.2 µM (active)
CCS(=O)(=O)N1CCc2cc(C(=O)N3CCN(c4ccccc4OC)CC3)ccc21; inactive
Cc1ccc2nc(N(CCN(C)C)C(=O)C3=COCCO3)sc2c1; 79.4 µM (active)
Cc1[nH]c2ccc(C(=O)N3CCN(C)CC3)cc2c1C; inactive
COc1ccc(C(C)NC(=O)C23CC4CC(CC(C4)C2)C3)cc1 (configuration not stated); inactive
CN(CC(=O)Nc1ccc(Cl)cc1)C(=O)c1ccc(COc2ccccc2)cc1; inactive

Exam item: Please provide the recorded Potency for CCN(CC)S(=O)(=O)c1ccc2c(c1)c(=O)c(C(=O)N1CCN(c3cccc(Cl)c3)CC1)cn2C , tested on Histone-lysine N-methyltransferase EHMT2 (Homo sapiens).
Marked response: inactive

Exam item: Please provide the recorded Potency for O=C(CC1C(=O)NCCN1CC(c1ccccc1)c1ccccc1)NCCc1cn[nH]c1 (configuration not stated) , tested on Histone-lysine N-methyltransferase EHMT2 (Homo sapiens).
Marked response: 44.7 µM (active)

Exam item: Please provide the recorded Potency for CCOC(=O)c1sc(NC(=O)c2ccncc2)nc1C , tested on Histone-lysine N-methyltransferase EHMT2 (Homo sapiens).
Marked response: inactive

Exam item: Please provide the recorded Potency for COc1cc(OC)cc(C(=O)NCCc2csc3nc(-c4ccccc4F)nn23)c1 , tested on Histone-lysine N-methyltransferase EHMT2 (Homo sapiens).
Marked response: inactive

---

Molecular target: Histone-lysine N-methyltransferase EHMT2 (Homo sapiens) (UniProt Q96KQ7)
Assay: qHTS Assay for Inhibitors of Histone Lysine Methyltransferase G9a; further: nearly all actives have a fitted effect of over 75% in size
Settings: G9a H3K9 monomethylation, AlphaScreen, 2 h; series mostly up to 59 µM
About 31,000 (8.9%) of roughly 350,000 compounds were called active. Roughly 15% stayed inconclusive and do not appear here. The call rests on the fitted dose curve; in most records, active means well fitted inhibition curve with a large enough effect; inconclusive means small, poorly fitted or top-dose-only effect; inactive means no such curve, though single readings can be large or run the other way. Many of the other results were omitted from the sample, so actives are more common in it than they were.
Permitted responses: true = active, false = inactive

CC(=O)Nc1ccc(-c2csc(NC(=O)Nc3ccccc3)n2)cc1; true

Exam item: Record request — test call for O=C1CCCC2=C1C(c1ccccc1)n1c(s/c(=C/c3cccc(F)c3)c1=O)=N2 (stereo not drawn)
Marked response: true

Exam item: Record request — test call for Cc1ccccc1CN1CCN(CC(=O)NCc2ccccn2)C1=O
Marked response: false

Exam item: Record request — test call for CCCCc1ccc(NC(=S)N2CCCC(CO)C2)cc1 (stereo not drawn)
Marked response: false

Exam item: Record request — test call for CCc1nn(CC(=O)Nc2cccc(C)c2C)c(=O)c2cc3sccc3n12
Marked response: false

Exam item: Record request — test call for COC(=O)CN1C(=O)CSc2ccc(S(=O)(=O)Nc3cc(C)ccc3C)cc21
Marked response: false

Exam item: Record request — test call for CCOc1ccccc1NC(=O)C1=C(C)Nc2ncnn2C1c1ccc(NC(C)=O)cc1 (stereo not drawn)
Marked response: false

Exam item: Record request — test call for CCCCc1ccc(NS(=O)(=O)c2cccc(C(=O)N3CCCN(C)CC3)c2)cc1
Marked response: false

Exam item: Record request — test call for CCOC(=O)Cc1csc(NC(=O)Nc2ccccc2)n1
Marked response: false

Exam item: Record request — test call for Cc1ccc(CN2CCN(Cc3cn(C)nc3-c3ccccc3)CC2CCO)o1 (stereo not drawn)
Marked response: false

---

Biological target: Histone-lysine N-methyltransferase EHMT2 (Homo sapiens) (UniProt Q96KQ7)
Assay: qHTS Assay for Inhibitors of Histone Lysine Methyltransferase G9a; further: nearly all actives have a fitted effect of over 75% in size
Details: G9a H3K9 monomethylation, AlphaScreen, 2 h; series mostly up to 59 µM
The whole screen tested about 350,000 compounds, of which about 31,000 (8.9%) were called active. Another 15% or so got no clear call; they are omitted. Calls follow the shape of the dose curve; as a rule, active = well fitted inhibition curve with a large enough effect; inconclusive = small, poorly fitted or top-dose-only effect; inactive = no such curve, though single readings can be large or run the other way. Many of the other results were omitted from the sample, so actives are more common in it than they were.
Permitted responses: active, inactive

CCOC(=O)Cn1c(=O)n(C2CCCCC2)c2nc(-c3cccc(OC)c3)nc(C(N)=O)c21; inactive
COc1cc(/C=C(\C#N)c2nc3c(s2)CC(C)CC3)ccc1O (configuration not stated); active
CCOc1ccc(-c2nonc2NC(=O)c2oc3ccc(C)cc3c2C)cc1OCC; inactive
COc1ccc2c(c1)cc1n2CCN=C1NN; active
O=C(COc1ccccc1O)NC1CCCC1; inactive
OCc1cnc(SCc2ccc(F)cc2)n1Cc1ccc(F)cc1; inactive
COc1ccc(CNC(=O)COC(=O)c2ccc(C)c(S(=O)(=O)N3CCOCC3)c2)cc1OC; inactive
CCN(CC)CCN(C(=O)c1ccc(N2C(=O)CCC2=O)cc1)c1nc2cc3c(cc2s1)OCO3; active

--- query ---
Exam item: Record request — test call for COc1cc(/C=C(\C#N)c2nc3ccccc3[nH]2)ccc1O
Marked response: active
